- system tested: USP15 (UniProt Q9Y4E8)
- Sequence (whole entry): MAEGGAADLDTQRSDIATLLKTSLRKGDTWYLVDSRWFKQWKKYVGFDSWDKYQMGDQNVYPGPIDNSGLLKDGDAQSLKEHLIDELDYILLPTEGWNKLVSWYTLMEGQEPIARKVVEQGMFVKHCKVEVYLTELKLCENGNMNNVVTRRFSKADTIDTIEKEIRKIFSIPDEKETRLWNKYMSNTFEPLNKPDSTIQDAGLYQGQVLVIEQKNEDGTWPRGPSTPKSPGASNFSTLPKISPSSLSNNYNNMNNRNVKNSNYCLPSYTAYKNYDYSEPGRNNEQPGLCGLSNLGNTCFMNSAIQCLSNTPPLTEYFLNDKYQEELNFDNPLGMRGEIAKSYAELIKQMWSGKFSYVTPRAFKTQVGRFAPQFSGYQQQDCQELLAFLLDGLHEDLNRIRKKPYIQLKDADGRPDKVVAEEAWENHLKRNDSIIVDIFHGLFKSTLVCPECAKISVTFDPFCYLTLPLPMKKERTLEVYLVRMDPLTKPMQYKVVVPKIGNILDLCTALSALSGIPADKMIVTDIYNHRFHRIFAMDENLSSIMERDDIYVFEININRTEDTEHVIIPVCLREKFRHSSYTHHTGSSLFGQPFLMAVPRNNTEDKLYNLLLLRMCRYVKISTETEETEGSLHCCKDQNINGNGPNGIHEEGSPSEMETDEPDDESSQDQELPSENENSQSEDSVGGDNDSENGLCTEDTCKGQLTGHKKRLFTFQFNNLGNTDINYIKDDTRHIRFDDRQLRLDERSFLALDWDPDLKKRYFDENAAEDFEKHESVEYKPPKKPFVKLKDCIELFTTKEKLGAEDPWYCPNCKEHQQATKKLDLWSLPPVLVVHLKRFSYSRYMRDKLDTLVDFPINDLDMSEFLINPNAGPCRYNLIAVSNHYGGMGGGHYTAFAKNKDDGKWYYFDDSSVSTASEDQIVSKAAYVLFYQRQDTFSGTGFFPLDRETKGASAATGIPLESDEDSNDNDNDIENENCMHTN
- assay method text: log2 ratio of Biotin-Ahx-Ub-VS probe labelling (fragment/DMSO); higher = less target engagement (more negative = stronger competition), active = hit call of the paper (q ≤ 0.05, log2 ratio ≤ -1)
- condition info: compound concentration: 200 uM; treatment time: 3 h
Please enter True where log2 ratio of Biotin-Ahx-Ub-VS probe labelling is greater than or equal to -0.1, and False where it is lower.

{"columns": ["compound", "category"],
 "data": [
  ["O=C(CCl)Nc1cccc(C(=O)N2CCSCC2)c1", "False"],
  ["O=C(CCl)NCCc1ccc(F)cc1", "True"],
  ["Cc1cccc(C(CNC(=O)CCl)N2CCOCC2)c1.Cl (stereo not given)", "True"],
  ["O=C(CCl)N1CCN(c2nc3ccccc3o2)CC1", "False"]
]}
